Target: HA-UCHL1 (Homo sapiens)
Sequence (P09936 1-223): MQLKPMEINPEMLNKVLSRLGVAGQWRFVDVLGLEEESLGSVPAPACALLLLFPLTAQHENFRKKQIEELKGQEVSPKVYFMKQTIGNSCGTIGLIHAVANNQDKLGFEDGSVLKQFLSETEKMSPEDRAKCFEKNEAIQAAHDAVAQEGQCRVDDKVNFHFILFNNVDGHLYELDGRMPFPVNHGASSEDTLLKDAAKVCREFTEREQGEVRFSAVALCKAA
Experiment: AlphaLISA DUB assay miniaturized to 1536-well format
Type: biochemical
Conditions: read-out: IC50 determined in the qHTS; qHTS; data not shown
Endpoint name: IC50
Write your answer as a measured quantity: the number, then the unit.

stdin: # query: IC50 of entry COC(=O)C1=CO[C@@H](C)[C@@H]2CN3CCc4c([nH]c5ccc(OC)cc45)[C@@H]3C[C@H]12 [(-)-aricine]
stdout: 38.5 µM
